# assay.system: C-Rel subunit;p50 subunit (Homo sapiens;Homo sapiens, UniProt Q04864;P19838 1-285;7-356)
# Sequence (Q04864 1-285, chain 1 of 2): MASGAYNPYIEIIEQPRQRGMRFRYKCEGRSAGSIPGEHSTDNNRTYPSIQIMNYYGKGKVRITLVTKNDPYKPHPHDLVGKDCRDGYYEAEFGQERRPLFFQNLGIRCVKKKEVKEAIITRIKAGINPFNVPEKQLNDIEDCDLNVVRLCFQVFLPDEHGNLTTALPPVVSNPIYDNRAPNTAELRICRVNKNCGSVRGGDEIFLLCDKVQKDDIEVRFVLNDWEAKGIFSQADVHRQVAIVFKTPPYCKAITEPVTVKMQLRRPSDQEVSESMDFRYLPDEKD
# Sequence (P19838 7-356, chain 2 of 2): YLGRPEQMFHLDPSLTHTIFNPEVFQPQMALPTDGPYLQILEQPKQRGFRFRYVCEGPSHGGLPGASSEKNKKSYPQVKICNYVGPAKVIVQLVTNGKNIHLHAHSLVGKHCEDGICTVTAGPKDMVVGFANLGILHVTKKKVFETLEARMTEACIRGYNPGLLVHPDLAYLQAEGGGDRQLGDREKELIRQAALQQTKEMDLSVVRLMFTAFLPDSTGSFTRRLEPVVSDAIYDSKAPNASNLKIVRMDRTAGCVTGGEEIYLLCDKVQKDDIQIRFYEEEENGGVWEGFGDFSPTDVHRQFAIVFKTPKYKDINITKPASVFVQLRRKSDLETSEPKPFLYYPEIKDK
# test.method.notes: protein binding microarray; high values mean tight binding
# conditions: dsDNA, one strand shown
Reported binding signal values for a set of sequences
State just the number; it will be interpreted in z-score.

AAATATGTCCT; -0.967
AAATAATTCCT; 0.179
AAGGTGTCCCT; 0.63
AGGTGGTCCCT; 0.227
AAAGATGTCCC; 0.497
AAGGTCCTCCT; -1.16

Q: Fill in reported binding signal for this entry: `AAGTGTGTCCT`
Result: -0.908

Q: Identify measured binding signal corresponding to `CGGAAGCTCCT`
Result: -1.46

Every entry's value here was drawn from paper PMC3218832.
